Please go through the items and note down their MFC.
System: Cryptococcus neoformans
measurement-description: Antifungal activity against Cryptococcus neoformans ATCC 90113 after 70 to 74 hrs by alamar blue dye based CLSI method
Type: functional
Residues, ends and D or L forms follow the SMILES beside them. *: point of attachment. Boc = CC(C)(C)OC(=O)*; NHBn = c1ccc(CN*)cc1

input: Request body: readout MFC, system Cryptococcus neoformans, query COC(=O)[C@H](Cc1c[nH]c(-c2ccc(-c3ccccc3)cc2)n1)NC(=O)[C@H](Cc1c[nH]c2ccccc12)NC(=O)[C@@H](N)Cc1c[nH]c(-c2ccc(-c3ccccc3)cc2)n1 . Return the value.
output: 0.63 µg/mL

input: Request body: readout MFC, system Cryptococcus neoformans, query CC(C)(C)c1ccc(-c2nc(C[C@H](NC(=O)[C@H](Cc3c[nH]c4ccccc34)NC(=O)[C@@H](N)Cc3c[nH]c(-c4ccc(C(C)(C)C)cc4)n3)C(=O)NCc3ccccc3)c[nH]2)cc1 . Return the value.
output: 5 µg/mL

input: Request body: readout MFC, system Cryptococcus neoformans, query COC(=O)[C@H](Cc1c[nH]c(-c2ccccc2)n1)NC(=O)[C@H](Cc1c[nH]c2ccccc12)NC(=O)[C@@H](N)Cc1c[nH]c(-c2ccccc2)n1 . Return the value.
output: 10 µg/mL

input: Request body: readout MFC, system Cryptococcus neoformans, query Cc1ccc(-c2nc(C[C@H](NC(=O)OC(C)(C)C)C(=O)N[C@@H](Cc3c[nH]c4ccccc34)C(=O)N[C@@H](Cc3c[nH]c(-c4ccc(C)cc4)n3)C(=O)NCc3ccccc3)c[nH]2)cc1 . Return the value.
output: > 20 µg/mL

input: Request body: readout MFC, system Cryptococcus neoformans, query CC(C)(C)OC(=O)N[C@@H](Cc1cnc[nH]1)C(=O)N[C@@H](Cc1c[nH]c2ccccc12)C(=O)N[C@@H](Cc1cnc[nH]1)C(=O)NCc1ccccc1 (Boc-His-Trp-His-NHBn) . Return the value.
output: 1.25 µg/mL

---

measurement-description: Selectivity index, ratio of cytotoxicity against human SK-MEL cells to IC50 for Cryptococcus neoformans ATCC 90113
Type: toxicity, cell-based
measurement-setup: read-out: Selectivity Index
Residues, ends and D or L forms follow the SMILES beside them. *: point of attachment. Boc = CC(C)(C)OC(=O)*; NHBn = c1ccc(CN*)cc1
measured-metric: selectivity ratio

input: selectivity ratio lookup needed for COC(=O)[C@H](Cc1c[nH]c(-c2ccc(C(C)(C)C)cc2)n1)NC(=O)[C@H](Cc1c[nH]c2ccccc12)NC(=O)[C@H](Cc1c[nH]c(-c2ccc(C(C)(C)C)cc2)n1)NC(=O)OC(C)(C)C , thanks.
output: > 7.9

input: selectivity ratio lookup needed for N[C@@H](Cc1cnc[nH]1)C(=O)N[C@@H](Cc1c[nH]c2ccccc12)C(=O)N[C@@H](Cc1cnc[nH]1)C(=O)NCc1ccccc1 (H-His-Trp-His-NHBn) , thanks.
output: > 1.2

input: selectivity ratio lookup needed for CC(C)(C)OC(=O)N[C@@H](Cc1cnc[nH]1)C(=O)N[C@@H](Cc1c[nH]c2ccccc12)C(=O)N[C@@H](Cc1cnc[nH]1)C(=O)NCc1ccccc1 (Boc-His-Trp-His-NHBn) , thanks.
output: > 12.5

---

Please go through the items and note down their selectivity ratio.
measurement-description: Selectivity index, ratio of cytotoxicity against pig LLC-PK1 cells to IC50 for Cryptococcus neoformans ATCC 90113
Format: toxicity, cell-based
measurement-setup: read-out: Selectivity Index
Residues, ends and D or L forms follow the SMILES beside them. *: point of attachment. Boc = CC(C)(C)OC(=O)*; NHBn = c1ccc(CN*)cc1

input: selectivity ratio lookup needed for COC(=O)[C@H](Cc1c[nH]c(-c2ccccc2)n1)NC(=O)[C@H](Cc1c[nH]c2ccccc12)NC(=O)[C@@H](N)Cc1c[nH]c(-c2ccccc2)n1 , thanks.
output: > 2.7

input: selectivity ratio lookup needed for CC(C)(C)OC(=O)N[C@@H](Cc1cnc[nH]1)C(=O)N[C@@H](Cc1c[nH]c2ccccc12)C(=O)N[C@@H](Cc1cnc[nH]1)C(=O)NCc1ccccc1 (Boc-His-Trp-His-NHBn) , thanks.
output: > 12.5

input: selectivity ratio lookup needed for CC(C)(C)c1ccc(-c2nc(C[C@H](NC(=O)[C@H](Cc3c[nH]c4ccccc34)NC(=O)[C@@H](N)Cc3c[nH]c(-c4ccc(C(C)(C)C)cc4)n3)C(=O)NCc3ccccc3)c[nH]2)cc1 , thanks.
output: > 3.8

input: selectivity ratio lookup needed for N[C@@H](Cc1c[nH]c(-c2ccc(-c3ccccc3)cc2)n1)C(=O)N[C@@H](Cc1c[nH]c2ccccc12)C(=O)N[C@@H](Cc1c[nH]c(-c2ccc(-c3ccccc3)cc2)n1)C(=O)NCc1ccccc1 , thanks.
output: > 7.1

input: selectivity ratio lookup needed for COC(=O)[C@H](Cc1c[nH]c(-c2ccc(-c3ccccc3)cc2)n1)NC(=O)[C@H](Cc1c[nH]c2ccccc12)NC(=O)[C@@H](N)Cc1c[nH]c(-c2ccc(-c3ccccc3)cc2)n1 , thanks.
output: > 28.6
